The reported measurements were obtained from patent US20220112288A1.

# ASSAY_SYSTEM: T1, Recombinant human CD4 (R&D Systems, Cat. 10327-CD) (human, UniProt P01730 26-390, limits assumed)
# T1 construct: Soluble analyte in the Octet assay
# EXPERIMENTAL_DETAILS: BLI Octet, mAb on anti-mouse Fc sensor, CD4 100/50/25 nM, 1:1 global fit;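 note: antibodies loaded at 10 µg/mL, an unrelated mouse-derived antibody served as internal reference control, association and dissociation phases fitted after Savitzky-Golay smoothing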
ENDPOINT_NAME: koff (s⁻¹)
Express the result in s⁻¹ but write the number alone.

Enquiry: For the binder shown here, 75110_05E13A (antibody, V domains shown, Tested as antibody purified from AlivaMab Mouse hybridoma supernatant (captured by anti-mouse IgG Fc)) VH: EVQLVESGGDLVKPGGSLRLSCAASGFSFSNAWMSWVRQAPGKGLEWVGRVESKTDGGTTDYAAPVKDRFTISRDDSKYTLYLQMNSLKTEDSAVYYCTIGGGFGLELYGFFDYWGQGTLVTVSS VL: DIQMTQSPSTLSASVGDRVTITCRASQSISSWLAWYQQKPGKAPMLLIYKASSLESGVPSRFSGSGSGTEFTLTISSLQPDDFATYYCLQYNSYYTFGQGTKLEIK , give the reported koff.
Return: 0.00022

Enquiry: Consider the binder 75110_04P08A (antibody, V domains shown, Tested as antibody purified from AlivaMab Mouse hybridoma supernatant (captured by anti-mouse IgG Fc)) VH: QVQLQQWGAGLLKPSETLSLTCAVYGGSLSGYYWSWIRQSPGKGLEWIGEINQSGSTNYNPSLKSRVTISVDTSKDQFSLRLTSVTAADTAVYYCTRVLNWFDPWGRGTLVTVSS VL: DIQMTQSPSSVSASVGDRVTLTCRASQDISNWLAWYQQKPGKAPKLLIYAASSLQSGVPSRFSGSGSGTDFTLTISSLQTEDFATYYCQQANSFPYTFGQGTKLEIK and give its measured koff.
Return: 0.0005
